Data provenance: paper PMC5046105

Molecular target: pWT PDZ2 K392M (Homo sapiens, UniProt Q12959, C378A/I342W/K392M)
Construct: constituting SAP97 residues 311–407 and the mutations I342W and C372A; His-tagged lipoyl protein domain (N, cleaved yes); made in house
Sequence (Q12959 311-407 I342W/C378A/K392M): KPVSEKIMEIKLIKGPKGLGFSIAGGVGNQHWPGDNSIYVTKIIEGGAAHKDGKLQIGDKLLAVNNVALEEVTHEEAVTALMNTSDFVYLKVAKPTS
Assay: Stopped-flow binding kinetics, peptide with pWT PDZ2 K392M
Conditions: displacement of pre-formed complex (1 µM PDZ, 2 µM peptide) with 100 and 150 µM dansylated RRRETQV peptide, pH 7.5, 10 °C, value ± standard error
Ends that are not written are not given here.
PROPERTY: koff
Please provide the amount together with its unit, number first.

Lab note: need koff with pWT PDZ2 K392M (Homo sapiens, UniProt Q12959, C378A/I342W/K392M) for entry Ac-NSKETVV [NSKETVV] , please look it up. 7.7 s⁻¹

And then Ac-KRKETLV [KRKETLV] , what is it? 3.4 s⁻¹

Next up: Ac-YRRESAI [YRRESAI] 105 s⁻¹

How about this substance: Ac-TSRETDL [TSRETDL] 62 s⁻¹

Now consider Ac-PGKETQL [PGKETQL] and answer again. 48 s⁻¹

Please give the result for Ac-RRRETQV [RRRETQV, reference compound] too. 3.3 s⁻¹

Check Ac-RSISTDV [RSISTDV] too. 31 s⁻¹

How about this substance: Ac-VSKETPL [VSKETPL] 150 s⁻¹

// same read-out, input: Ac-SARSTDV [SARSTDV] 25 s⁻¹

Entry Ac-EKKHTLL [EKKHTLL] please 157 s⁻¹
